solubility thermodynamic at 24 h reference
assay: physchem; conditions: phosphate buffer, pH 4
Description: Thermodynamic solubility of the compound in phosphate buffer at pH 4 after 24 hrs by HPLC analysis

>  <SMILES_DATA>
CCCCCn1cc(C(=O)Nc2cccc3ccccc23)c2ccccc21

>  <solubility thermodynamic at 24 h>
< 1 µM

$$$$
>  <SMILES_DATA>
COCCn1cc(C(=O)Nc2cccc3ccccc23)c2ccccc21

>  <solubility thermodynamic at 24 h>
3 µM

$$$$
>  <SMILES_DATA>
COCCn1cc(C(=O)Nc2ccc3ccccc3c2)c2ccccc21

>  <solubility thermodynamic at 24 h>
< 1 µM

$$$$

Here's the next entry for you.
Query string: If you can, please state the reported solubility thermodynamic at 24 h value of COCCn1cc(C(=O)c2ccccc2-c2ccccc2)c2ccccc21 .
Result string: < 1 µM

// data source = ChEMBL document CHEMBL1828497
